Listed next: entries and their corresponding remaining activity at 1 µM.
Molecular target: BMX (Homo sapiens (Human))
Sequence (P51813 whole entry): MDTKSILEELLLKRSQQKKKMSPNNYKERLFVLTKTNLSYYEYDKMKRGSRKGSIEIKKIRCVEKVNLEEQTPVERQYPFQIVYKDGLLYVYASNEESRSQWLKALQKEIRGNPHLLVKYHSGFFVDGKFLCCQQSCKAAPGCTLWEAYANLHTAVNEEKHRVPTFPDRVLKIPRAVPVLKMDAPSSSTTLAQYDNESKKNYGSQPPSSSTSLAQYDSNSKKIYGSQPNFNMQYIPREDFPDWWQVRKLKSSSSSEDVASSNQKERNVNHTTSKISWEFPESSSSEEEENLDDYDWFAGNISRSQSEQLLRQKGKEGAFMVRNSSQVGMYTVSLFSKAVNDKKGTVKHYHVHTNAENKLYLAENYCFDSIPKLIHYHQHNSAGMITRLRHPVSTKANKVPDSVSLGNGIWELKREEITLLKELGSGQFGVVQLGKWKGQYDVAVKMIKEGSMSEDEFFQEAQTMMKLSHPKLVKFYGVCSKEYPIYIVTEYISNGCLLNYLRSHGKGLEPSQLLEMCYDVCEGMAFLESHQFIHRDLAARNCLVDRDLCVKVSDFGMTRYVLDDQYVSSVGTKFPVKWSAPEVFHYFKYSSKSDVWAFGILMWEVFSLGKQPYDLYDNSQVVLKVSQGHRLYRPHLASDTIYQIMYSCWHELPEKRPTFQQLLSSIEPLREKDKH
Experiment: HTRF KinEASE-TK kinase assay, BMX
Assay type: biochemical
Settings: 1 uM compound, 3 h preincubation

{"compound": "COCCOc1ccc(Nc2ncc(F)c(NCCCNS(=O)(=O)c3c(F)c(F)c(F)c(F)c3C(F)F)n2)cc1", "measured_endpoint": "remaining activity at 1 µM", "reading": "< 50%"}
{"compound": "CS(=O)(=O)c1c(F)c(F)c(F)c(F)c1C(=O)NCCn1nc(-c2ccc(Oc3ccccc3)cc2)c2c(N)ncnc21", "measured_endpoint": "remaining activity at 1 µM", "reading": "< 50%"}
{"compound": "CN(C)S(=O)(=O)c1c(F)c(F)c(F)c(F)c1C(=O)NCCCn1nc(-c2ccc(Oc3ccccc3)cc2)c2c(N)ncnc21", "measured_endpoint": "remaining activity at 1 µM", "reading": "< 50%"}
{"compound": "COCCOc1ccc(Nc2ncc(F)c(Nc3cccc(NS(=O)(=O)c4c(F)c(F)c(F)c(F)c4OC(F)F)c3)n2)cc1", "measured_endpoint": "remaining activity at 1 µM", "reading": "< 50%"}
{"compound": "CN(C)S(=O)(=O)c1c(F)c(F)c(F)c(F)c1C(=O)N1CCC[C@@H](n2nc(-c3ccc(Oc4ccccc4)cc3)c3c(N)ncnc32)C1", "measured_endpoint": "remaining activity at 1 µM", "reading": "< 50%"}
{"compound": "CN(CCn1nc(-c2ccc(Oc3ccccc3)cc2)c2c(N)ncnc21)C(=O)c1c(F)c(F)c(F)c(F)c1S(=O)(=O)N(C)C", "measured_endpoint": "remaining activity at 1 µM", "reading": "50 to 90%"}
{"compound": "C[S+]([O-])c1c(F)c(F)c(F)c(F)c1C(=O)Nc1cc2c(Nc3ccc(F)c(Cl)c3)ncnc2cc1OC1CCOC1 (centres unmarked)", "measured_endpoint": "remaining activity at 1 µM", "reading": "50 to 90%"}
{"compound": "COCCOc1ccc(Nc2ncc(F)c(Nc3cccc(Nc4c(F)c(F)c(F)c(F)c4[S@+](C)[O-])c3)n2)cc1 (stereo in doubt)", "measured_endpoint": "remaining activity at 1 µM", "reading": "< 50%"}
{"compound": "CS(=O)(=O)c1c(F)c(F)c(F)c(F)c1CNCCNc1ncnc2[nH]ccc12", "measured_endpoint": "remaining activity at 1 µM", "reading": "< 50%"}
{"compound": "C[S@+]([O-])c1c(F)c(F)c(F)c(F)c1C(=O)Nc1ncnc2[nH]ccc12 (racemic)", "measured_endpoint": "remaining activity at 1 µM", "reading": "50 to 90%"}

Value lookup for remaining activity at 1 µM; key = COCCOc1ccc(Nc2ncc(F)c(Nc3cccc(NS(=O)(=O)c4c(F)c(F)c(F)c(F)c4C(F)(F)F)c3)n2)cc1
< 50%

Value lookup for remaining activity at 1 µM; key = COCCOc1ccc(Nc2ncc(F)c(NCCCNS(=O)(=O)c3c(F)c(F)c(F)c(F)c3CF)n2)cc1
< 50%

Value lookup for remaining activity at 1 µM; key = CS(=O)(=O)c1c(F)c(F)c(F)c(F)c1CNCCn1nc(-c2ccc(Oc3ccccc3)cc2)c2c(N)ncnc21
< 50%

Value lookup for remaining activity at 1 µM; key = CS(=O)(=O)c1c(F)c(F)c(F)c(F)c1C(=O)n1ccc2c(N)ncnc21
50 to 90%
